# METHOD SUMMARY: ATG_BRE_CIS: Attagene CIS-FACTORIAL HepG2 Assay for human Bone Morphogenetic Protein (BMP) Response Element (BRE) (AID 2282933)
# TEST PARAMETERS: HepG2 BMP response element reporter, Attagene transcription factor profiling; actives raise or lower the signal
Activity calls are given as the source filed them. How the source made its calls: active means hit-call score of the fitted dose curve at least 0.9, where 1 is the maximum; inactive means score below 0.9.
Please reply with one of these outcomes: active, inactive

Qu. Given `O=S(=O)(F)C(F)(F)C(F)(F)C(F)(F)C(F)(F)C(F)(F)C(F)(F)C(F)(F)C(F)(F)F` , state the outcome it received in this test.
Ans. inactive

Qu. Given CCCCC(CC)COP(=O)(Oc1ccccc1)Oc1ccccc1 (centres undefined) , state the outcome it received in this test.
Ans. active

Qu. Given CC(O)C(F)(F)C(F)(F)F (centres undefined) , state the outcome it received in this test.
Ans. inactive

Qu. Given O=C(O)C1C(C(=O)O)C2(Cl)C(Cl)=C(Cl)C1(Cl)C2(Cl)Cl (centres undefined) , state the outcome it received in this test.
Ans. inactive

Qu. Given `CCCCc1ccc(O)cc1` , state the outcome it received in this test.
Ans. inactive

Qu. Given `CC1=C(C(=O)Nc2ccccc2)S(=O)(=O)CCO1` , state the outcome it received in this test.
Ans. active

Qu. Given `Nc1ccc(Cl)cc1` , state the outcome it received in this test.
Ans. inactive

Qu. Given `c1ccc2c(c1)sc1ccccc12` , state the outcome it received in this test.
Ans. inactive

Qu. Given `CCCN(CCC)c1c([N+](=O)[O-])cc(C(C)C)cc1[N+](=O)[O-]` , state the outcome it received in this test.
Ans. inactive

Qu. Given `CC(C)(C)c1ccccc1OP(=O)(Oc1ccccc1)Oc1ccccc1` , state the outcome it received in this test.
Ans. inactive

Qu. Given CCCCOCC1CO1 (centres undefined) , state the outcome it received in this test.
Ans. inactive

Qu. Given `c1ccc(OP(Oc2ccccc2)Oc2ccccc2)cc1` , state the outcome it received in this test.
Ans. inactive

Qu. Given `Cc1c([N+](=O)[O-])cc2c(c1[N+](=O)[O-])C(C)(C)CC2(C)C` , state the outcome it received in this test.
Ans. active

Qu. Given CC(Cl)CN(C)C (centres undefined) , state the outcome it received in this test.
Ans. inactive

Qu. Given `CC(C)Nc1ccc(Nc2ccccc2)cc1` , state the outcome it received in this test.
Ans. inactive

Qu. Given `Nc1ccc(Sc2ccc(N)cc2)cc1` , state the outcome it received in this test.
Ans. inactive

Qu. Given `Cc1cc(C)c(C(=O)P(=O)(c2ccccc2)c2ccccc2)c(C)c1` , state the outcome it received in this test.
Ans. inactive

Qu. Given `OCC(F)(F)OC(F)(F)C(F)(F)OC(F)(F)CO` , state the outcome it received in this test.
Ans. inactive

Qu. Given CCOP(=S)(NC(C)C)Oc1ccccc1C(=O)OC(C)C (centres undefined) , state the outcome it received in this test.
Ans. inactive
